# TARGET OR SYSTEM: GCN2 (Homo sapiens, UniProt Q9P2K8)
# Sequence (Q9P2K8 whole entry): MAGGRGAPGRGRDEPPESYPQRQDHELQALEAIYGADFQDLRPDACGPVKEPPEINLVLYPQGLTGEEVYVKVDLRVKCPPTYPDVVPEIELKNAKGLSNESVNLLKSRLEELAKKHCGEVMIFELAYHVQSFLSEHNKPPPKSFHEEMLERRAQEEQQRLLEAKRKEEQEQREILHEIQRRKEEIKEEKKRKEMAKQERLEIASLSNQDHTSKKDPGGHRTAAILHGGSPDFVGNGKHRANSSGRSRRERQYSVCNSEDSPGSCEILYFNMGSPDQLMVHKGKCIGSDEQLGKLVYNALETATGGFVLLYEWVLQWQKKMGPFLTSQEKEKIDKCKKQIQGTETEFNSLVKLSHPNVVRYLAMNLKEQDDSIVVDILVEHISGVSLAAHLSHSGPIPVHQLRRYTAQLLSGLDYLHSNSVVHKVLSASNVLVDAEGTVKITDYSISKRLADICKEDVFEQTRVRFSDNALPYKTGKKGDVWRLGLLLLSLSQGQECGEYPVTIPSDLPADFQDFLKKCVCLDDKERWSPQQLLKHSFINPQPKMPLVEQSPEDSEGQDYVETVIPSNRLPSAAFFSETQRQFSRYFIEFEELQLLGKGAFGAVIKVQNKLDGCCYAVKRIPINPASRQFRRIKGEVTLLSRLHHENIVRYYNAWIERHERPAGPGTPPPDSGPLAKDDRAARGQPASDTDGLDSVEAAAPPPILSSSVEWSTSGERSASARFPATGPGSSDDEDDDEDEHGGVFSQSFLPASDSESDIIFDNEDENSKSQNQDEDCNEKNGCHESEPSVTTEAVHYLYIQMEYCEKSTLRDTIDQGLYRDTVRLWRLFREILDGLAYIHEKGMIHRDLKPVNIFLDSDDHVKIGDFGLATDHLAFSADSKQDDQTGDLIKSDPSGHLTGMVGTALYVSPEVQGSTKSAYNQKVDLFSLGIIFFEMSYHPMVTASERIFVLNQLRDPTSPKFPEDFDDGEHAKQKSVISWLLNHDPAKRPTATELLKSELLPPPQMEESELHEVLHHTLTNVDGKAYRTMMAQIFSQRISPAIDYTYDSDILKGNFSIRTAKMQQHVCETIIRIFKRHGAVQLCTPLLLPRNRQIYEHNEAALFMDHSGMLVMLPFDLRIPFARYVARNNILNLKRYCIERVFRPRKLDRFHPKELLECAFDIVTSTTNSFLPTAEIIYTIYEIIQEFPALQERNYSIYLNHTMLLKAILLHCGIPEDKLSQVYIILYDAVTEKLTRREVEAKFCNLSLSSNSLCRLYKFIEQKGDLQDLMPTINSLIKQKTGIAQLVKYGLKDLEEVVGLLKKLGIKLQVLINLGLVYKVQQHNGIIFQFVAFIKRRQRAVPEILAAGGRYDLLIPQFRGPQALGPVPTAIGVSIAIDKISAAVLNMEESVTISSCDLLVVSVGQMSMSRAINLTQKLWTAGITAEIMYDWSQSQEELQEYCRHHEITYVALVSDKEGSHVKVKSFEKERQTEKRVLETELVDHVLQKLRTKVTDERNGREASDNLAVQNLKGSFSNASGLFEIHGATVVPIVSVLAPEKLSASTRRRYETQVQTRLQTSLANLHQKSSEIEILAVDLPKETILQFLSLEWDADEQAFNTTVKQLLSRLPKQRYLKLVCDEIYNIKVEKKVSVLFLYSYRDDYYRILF
# TEST DESCRIPTION: GCN2 enzymatic endpoint assay: phosphorylation of GFP-eIF2α measured by TR-FRET (Lanthascreen)
# Assay type: biochemical
# CONDITION SUMMARY: tested as described in Example 77; compound and/or hydrochloride, dihydrochloride or trifluoroacetic acid salt; read-out: IC 50 Activity
pIC50: −log10 of the molar value.
METRIC NAME: pIC50

- CN1C(=O)CCC1CNC(=O)[C@@H]1CC[C@@H](Nc2ncc3c(Br)nn(-c4cc(C#N)c5ncccc5c4)c3n2)C1 (some centres unmarked): > 7.60
- CN(CCNC(=O)[C@@H]1CC[C@@H](Nc2ncc3c(Br)nn(-c4ccc5ncccc5c4)c3n2)C1)CC(=O)O: 6.70 to 7.60
- CNC(=O)[C@]1(C)CC[C@@H](Nc2ncc3c(Br)nn(-c4ccc5ncc(CCO)cc5c4)c3n2)C1: > 7.60
- Cc1nnc(-c2ccc(-n3nc(Br)c4cnc(N[C@@H]5CCC[C@@H](P(C)(C)=O)C5)nc43)cc2)s1: 6.70 to 7.60
- CNC(=O)[C@]1(C)CC[C@@H](Nc2ncc3c(Br)nn(-c4cc(CS(C)(=O)=O)c5nccnc5c4)c3n2)C1: 6.70 to 7.60

Provide reported pIC50 for each item, in the same order as listed.
1. N#Cc1cc(-n2nc(Br)c3cnc(N[C@@H]4CC[C@@H](C(=O)N5CC(N6CCC(F)(F)C6)C5)C4)nc32)cc2cccnc12
2. CNC(=O)[C@]1(COC)CC[C@@H](Nc2ncc3c(I)nn(-c4cc(F)c5ncccc5c4)c3n2)C1
3. CNC(=O)[C@]1(C)CC[C@@H](Nc2ncc3c(Br)nn(-c4ccc(-c5nnc(C)s5)c(CCCN)c4)c3n2)C1

OUT:
6.70 to 7.60
> 7.60
6.70 to 7.60
